Experiment: NCI Yeast Anticancer Drug Screen. Data for the bub3 strain (AID 167)
Details: S. cerevisiae bub3 mutant strain, at 5.0 µM (retest, dose inferred, filed as 0.5), active compounds read high
The panel holds about 79,000 compounds, 15% with a hit somewhere; the sample as a whole holds those more often.
Measured Quantity: growth inhibition (%)
Give your result in % as a bare value.

Data request: Need growth inhibition, item `O=C1c2ccccc2-c2nc3ncccc3cc21`
Data returned: 4

Data request: Need growth inhibition, item NNC(=O)N/N=C(/CC1(O)C(=O)Nc2ccc(Br)cc21)c1ccccc1 (stereo unspecified)
Data returned: 8

Data request: Need growth inhibition, item `O=S(=O)(/C=C/c1cccnc1)/C=C/c1cccnc1`
Data returned: -2

Data request: Need growth inhibition, item `O=C(O)C/C(=C\c1ccco1)C(=O)O`
Data returned: -8

Data request: Need growth inhibition, item `COc1ccc(Oc2cc3c[n+](C)ccc3cc2OC)cc1`
Data returned: 0

Data request: Need growth inhibition, item `O=C1c2cccc(NCCNCCO)c2C(=O)c2cccc(NCCNCCO)c21`
Data returned: 15

* * *

Assay: NCI Yeast Anticancer Drug Screen. Data for the cln2 rad14 strain (AID 165);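 further: 0% = growth equal to vehicle treated cultures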
Conditions: S. cerevisiae cln2 rad14 strain, at 5.0 µM (retest, dose inferred, filed as 0.5), active compounds read high
Method: Growth inhibition of yeast strains with defined genetic alterations is measured as a screen for potential anti-cancer activity. Selected strains with alterations in DNA damage repair or cell cycle control were exposed to compounds and growth inhibition was measured relative to vehicle treated controls. The strain used in this assay is cln2 rad14
Compounds without any hit were thinned out: in the full panel of roughly 79,000, 15% have a hit.
Would you mind telling me the reported growth inhibition of each entry?
Give your result in % as a bare value.

Data request: Need growth inhibition, item `OCC(c1ccccc1)c1ccccc1`
Data returned: 2

Data request: Need growth inhibition, item N#CC(C(=O)C(N)=O)c1ccc(Cl)cc1Cl (centres undefined)
Data returned: -4

Data request: Need growth inhibition, item `Cc1nc2c(Cl)nc(Cl)nc2s1`
Data returned: -8

Data request: Need growth inhibition, item OC1(c2ccc(Br)cc2)C2CCCCC2C2CCCCC21 (centres undefined)
Data returned: -4

Data request: Need growth inhibition, item Nc1ncnc2nn(C3OC(CO)C(O)C3O)nc12 (centres undefined)
Data returned: -29

Data request: Need growth inhibition, item `COC(=O)/C(C#N)=C(/SC)N(C)C`
Data returned: 6

Data request: Need growth inhibition, item `O=C(N/C(=C\c1ccc(Cl)cc1)c1nc2ccccc2s1)c1ccccc1`
Data returned: 15

Data request: Need growth inhibition, item `CCOC(=O)N1CCN(C=S)CC1`
Data returned: 17

Data request: Need growth inhibition, item `COc1ccc2c(c1)sc(/C=C/c1ccc(O)c3ncccc13)[n+]2C`
Data returned: 3

Data request: Need growth inhibition, item `O=Nc1c(O)c2ccccc2c2ccc([N+](=O)[O-])cc12`
Data returned: 12

Data request: Need growth inhibition, item `Cc1cc(CC(O)(C(F)(F)F)C(F)(F)F)cc(CC(O)(C(F)(F)F)C(F)(F)F)n1`
Data returned: 9

Data request: Need growth inhibition, item C=C1C(=O)OC2C(C)C3C=CC(=O)[C@@]3(C)C(OC(=O)/C(C)=C/C)C1[C@@H]2OC(C)=O (some centres undefined)
Data returned: 11

Data request: Need growth inhibition, item `CSC(C=P(c1ccccc1)(c1ccccc1)c1ccccc1)=Nc1ccccc1`
Data returned: 3

Data request: Need growth inhibition, item `Cc1ccc(NC(Nc2ccc(C)cc2C)=C(/C=C(\Cl)[N+](=O)[O-])[N+](=O)[O-])c(C)c1`
Data returned: 98

Data request: Need growth inhibition, item COc1cc2c[n+](C)c3c4ccccc4ccc3c2cc1OC (tested in a mixture with another compound)
Data returned: 21

Data request: Need growth inhibition, item `NC(=O)c1oc([N+](=O)[O-])c(-c2ccccc2)c1-c1ccccc1`
Data returned: -6

Data request: Need growth inhibition, item CSC1=Nc2ccccc2SC(c2ccccc2)C1c1ccccc1 (centres undefined)
Data returned: -3

Data request: Need growth inhibition, item `COc1c([N+](=O)[O-])cc(-c2ccccc2)cc1[N+](=O)[O-]`
Data returned: -2

Data request: Need growth inhibition, item `CCCCCCCCC1(OCCCS(=O)(=O)O)COc2ccccc2OCCOCCOc2ccccc2OC1`
Data returned: -4

Data request: Need growth inhibition, item COc1ccc2c(c1)OC(c1ccccc1O)CC2=O (centres undefined)
Data returned: -14

Data request: Need growth inhibition, item `CCCCCCCCCCCCN(CCO)CCO`
Data returned: 67

Data request: Need growth inhibition, item `COc1ccc(CCBr)cc1`
Data returned: 17

Data request: Need growth inhibition, item CSc1nc(N)c2cnn(C3OC(CO)C(O)C3O)c2n1 (centres undefined)
Data returned: 7

Data request: Need growth inhibition, item `CCOC(=O)Cc1csc2[n+]1C(=O)/C(=C\c1cccc(Cl)c1Cl)S2`
Data returned: -11
